Target: Estrogen receptor (Homo sapiens)
Experiment: qHTS assay to identify small molecule agonists of the estrogen receptor alpha (ER-alpha) signaling pathway using the BG1 cell line (AID 743079); also: nearly all actives have a fitted effect of over 20% in size
Details: BG1Luc4E2 cells, ERE-luciferase agonist, 22 h
Records with an inconclusive call do not appear. Calls of active or inactive are those of the source. Calls follow the shape of the dose curve; as a rule, active = well fitted activation curve with a large enough effect in the repeat runs; inconclusive = weak or mixed curves, or effect the other way; inactive = no such curve, though single readings can be large or run the other way.
Possible outcomes: active, inactive

INSERT INTO assay_data (compound, classification) VALUES
  ('CCCCCCCCCCOS(=O)(=O)O', 'inactive'),
  ('CO[C@H]1C=CO[C@@]2(C)Oc3c(C)c(O)c4c(O)c(c5c(c4c3C2=O)=NC2(CCN(CC(C)C)CC2)N=5)NC(=O)/C(C)=C\C=C/[C@H](C)[C@H](O)[C@@H](C)[C@@H](O)[C@@H](C)[C@H](OC(C)=O)[C@@H]1C', 'inactive'),
  ('CC(=O)[C@H]1CC[C@H]2[C@@H]3C=CC4=CC(=O)CC[C@@]4(C)[C@@H]3CC[C@]12C', 'inactive'),
  ('O=[N+]([O-])c1cccc(S(=O)(=O)NCCNS(=O)(=O)c2cccc([N+](=O)[O-])c2)c1', 'inactive'),
  ('CCOC(=O)c1ccccc1C', 'inactive'),
  ('OC(CCCN1CCCCC1)(c1ccccc1)c1ccccc1', 'inactive'),
  ('CC(N)CN (stereo unspecified)', 'inactive'),
  ('CC(C)OCC1CO1 (stereo unspecified)', 'inactive'),
  ('O=C1NCCN1', 'inactive'),
  ('CCCCC(=O)O[C@]1(C(=O)CO)CC[C@H]2[C@@H]3CCC4=CC(=O)CC[C@]4(C)[C@H]3[C@@H](O)C[C@@]21C', 'inactive'),
  ('O=S1OCCO1', 'inactive'),
  ('CC(=O)CC(c1ccc([N+](=O)[O-])cc1)c1c(O)c2ccccc2oc1=O (stereo unspecified)', 'inactive'),
  ('Cc1nc2ccccc2s1', 'inactive'),
  ('OCC1CC=CCC1 (stereo unspecified)', 'inactive'),
  ('CC1=C(C=O)C(C)(C)CCC1', 'inactive'),
  ('Cc1oncc1C(=O)Nc1ccc(C(F)(F)F)cc1', 'inactive'),
  ('CCC(C(=O)OCCN(CC)CC)c1ccccc1 (stereo unspecified)', 'inactive'),
  ('CCCOc1ccc(S(=O)(=O)N2CCN(CC)CC2)cc1-c1nc2c(CC)n(Cc3ccccn3)nc2c(=O)[nH]1', 'inactive'),
  ('CC(=O)Nc1ccccc1C', 'inactive'),
  ('CC(C)CCCCCCOC(=O)CCCCC(=O)OCCCCCCC(C)C', 'inactive'),
  ('CCCCC(CC)COC(=O)COc1ccc(Cl)cc1C (stereo unspecified)', 'inactive'),
  ('CCC(C(=O)OCCOCCN(CC)CC)c1ccccc1 (stereo unspecified)', 'inactive'),
  ('NC(=O)Nc1ccc(Cl)cc1', 'inactive'),
  ('CCN(Cc1cccc(S(=O)(=O)O)c1)c1ccc(C(=C2C=CC(=[N+](CC)Cc3cccc(S(=O)(=O)[O-])c3)C=C2)c2ccccc2)cc1', 'inactive'),
  ('Nc1ccc(S(=O)(=O)O)cc1', 'active'),
  ('CCCCCCCCCCCC[N+](C)(C)CC(=O)[O-]', 'inactive'),
  ('CCCCN(CCCC)C(=S)SSC(=S)N(CCCC)CCCC', 'inactive'),
  ('CCCc1c(OCCCOc2ccc(OCC(=O)O)cc2)ccc(C(C)=O)c1O', 'inactive'),
  ('CC[C@H](NC(=O)c1cc(F)ccc1NS(=O)(=O)c1cccc2cccnc12)c1ccccc1', 'inactive'),
  ('O=C(O)c1cccnc1C(=O)O', 'inactive'),
  ('CCC1(C)CC(=O)NC1=O (stereo unspecified)', 'inactive'),
  ('N#C[C@@H]1C[C@@H]2C[C@@H]2N1C(=O)[C@@H](N)C12CC3CC(CC(O)(C3)C1)C2', 'inactive'),
  ('COC(OC)(C(=O)c1ccccc1)c1ccccc1', 'active'),
  ('CCn1cc(C(=O)O)c(=O)c2cc(F)c(N3CCNCC3)nc21', 'inactive'),
  ('Cc1cc(O)c(C(C)C)cc1Cl', 'inactive'),
  ('O=Cc1c(Cl)cccc1Cl', 'inactive'),
  ('CC1=CC(O)CC(C)(C)C1 (stereo unspecified)', 'inactive'),
  ('CCOc1cc(N)c(Cl)cc1C(=O)NCC1CN(Cc2ccc(F)cc2)CCO1 (stereo unspecified)', 'inactive'),
  ('ON(Cc1ccccc1)Cc1ccccc1', 'inactive'),
  ('CCC(=O)OC/C=C/c1ccccc1', 'active'),
  ('CCn1nc(C)c2c1C(=O)NCC(c1ccc(O)cc1)=N2', 'inactive'),
  ('CN1CCCN=C1/C=C/c1cccs1', 'active'),
  ('CN1C(=O)CC(C)(c2ccccc2)C1=O (stereo unspecified)', 'inactive'),
  ('CC(C)CCCC(=O)O', 'inactive'),
  ('O=C(O)c1cccc(O)c1', 'inactive'),
  ('CC(C)(CCl)c1ccccc1', 'inactive'),
  ('O=C1OCCN1/N=C/c1ccc([N+](=O)[O-])o1', 'active'),
  ('COCc1c(C(C)C)nc(C(C)C)c(/C=C/[C@@H](O)C[C@@H](O)CC(=O)O)c1-c1ccc(F)cc1', 'active'),
  ('C[Si](NC1CCCCC1)(NC1CCCCC1)NC1CCCCC1', 'inactive'),
  ('CO[Si](C)(OC)OC', 'inactive'),
  ('Cc1cc(C(=C2C=CC(=Nc3ccc(S(=O)(=O)O)cc3S(=O)(=O)O)C=C2)c2ccc(Nc3ccc(S(=O)(=O)O)cc3)cc2)ccc1N', 'inactive');
